Tested on: Staphylococcus aureus
Assay comment: Antimicrobial activity against methicillin-resistant Staphylococcus aureus ATCC BAA1026 after 18 hrs by MTT dye based TLC assay
Assay type: functional
The source made the active and inactive calls. The calls are words filed in the database; no cut-off is given here.
Measurement kind: Activity

Solved cases (5 shown):
Q. Please report the recorded Activity for COC1=C(Br)[C@@H](O)[C@]2(C=C1Br)CC(C(=O)NCCCC(=O)O)=NO2 .
A. Active

Q. Please report the recorded Activity for COC1=C(Br)[C@@H](O)[C@]2(C=C1Br)CC(C(=O)NCCCOc1c(Br)cc(C/C(=N\O)C(=O)NCCc3cnc(N)[nH]3)cc1Br)=NO2 .
A. Active

Q. Please report the recorded Activity for CCOC1(CCCNC(=O)C2=NO[C@@]3(C=C(Br)C(OC)=C(Br)[C@H]3O)C2)N=C(N)NC1=O (mixture of isomers) .
A. Active

Q. Please report the recorded Activity for COC1=C(Br)[C@@H](O)[C@]2(C=C1Br)CC(C(=O)NCCCOc1c(Br)cc(CC(N)C(=O)O)cc1Br)=NO2 (stereo not given in full) .
A. Active

Q. Please report the recorded Activity for COc1ccc(C/C(=N\O)C(=O)NCCc2cc(Br)c(OCCCN(C)C)c(Br)c2)cc1Br .
A. Active

Others:
Q. Please report the recorded Activity for COC1=C(Br)[C@@H](O)[C@]2(C=C1Br)CC(C(=O)NCCCOc1c(Br)cc(CCN)cc1Br)=NO2 .
A. Active

Q. Please report the recorded Activity for COC1=C(Br)[C@@H](O)[C@]2(C=C1Br)CC(C(=O)NCCc1cc(Br)c(O)c(Br)c1)=NO2 .
A. Active

Q. Please report the recorded Activity for COC1=C(Br)[C@@H](O)[C@]2(C=C1Br)CC(C(N)=O)=NO2 .
A. Active

Q. Please report the recorded Activity for CNCCCOc1c(Br)cc(CCNC(=O)/C(Cc2ccc(OC)c(Br)c2)=N/O)cc1Br .
A. Active

Q. Please report the recorded Activity for COC1=C(Br)[C@@H](O)[C@]2(C=C1Br)CC(C(=O)NCCc1ccc(O)c(Br)c1)=NO2 .
A. Active
